Tested on: turtle Thyroid Hormone Receptor, alpha (TRa), gene 101949057
Test: ATG_trTRa_XSP2: Attagene TRANS-FACTORIAL Multi-Species (XSP1) HepG2 Assay for turtle Thyroid Hormone Receptor, alpha (TRa) (AID 2283834);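 further: hits raise reporter mRNA over the DMSO baseline so AC50 marks activators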
Experimental: ATG_XSP2_multi-species_TRANS is a cell-based, multiplexed assay created by modifying the existing Attagene TRANS-FACTORIAL system to include a panel of nuclear receptors from some or all the following species: human (Homo sapiens), mouse (Mus musculus), frog (Xenopus laevis), zebrafish (Danio rerio), chicken (Gallus gallus), and turtle (Chrysemys picta). The ECOTOX-FACTORIAL format uses HepG2, a human liver cell line, with measurements taken at 24 hours after chemical dosing in a 24-well plate. […]
Records with an inconclusive call do not appear. The source made the active and inactive calls. How the source made its calls: active means hit-call score of the fitted dose curve at least 0.9, where 1 is the maximum; inconclusive means response in the unintended direction; inactive means score below 0.9.
A correct response names exactly one class from 1.0 = active, 0.0 = inactive

Take a look at these entries with their results.
C#CCC1=C(C)C(OC(=O)C2C(C=C(C)C)C2(C)C)CC1=O (centres undefined) = 0.0
CCC(=O)Nc1ccc(Cl)c(Cl)c1 = 0.0
CCOP(=S)(OCC)Oc1ccc2c(C)c(Cl)c(=O)oc2c1 = 1.0

Turning to the following compound.
Hi team, can someone confirm the assay call for CCOP(=O)(NC(C)C)Oc1ccc(SC)c(C)c1 (centres undefined) ?
0.0

* * *

Assay: APR_HepG2_MitoMass_1hr: Apredica 1-hour HepG2 Assay for Mitochondrial Mass (AID 2282674)
Conditions: high-content imaging, actives raise or lower the signal
Experimental: APR_HepG2_1hr is a cell-based, multiplexed-readout assay that uses HepG2, a human liver cell line, with measurements taken at 1 hour after chemical dosing in a 384-well plate.APR_HepG2_MitoMass_1hr is one of 10 assay component(s) measured or calculated from the APR_HepG2_1hr assay. […] This assay endpoint, APR_HepG2_MitoMass_1hr, was analyzed with bidirectional fitting relative to DMSO as the negative control and baseline of activity. […]
Activity calls are given as the source filed them. The calls were made as follows: active = hit-call score of the fitted dose curve at least 0.9, where 1 is the maximum; inactive = score below 0.9.
READOUT_KIND: outcome

The following molecules have reported results that may help.
COP(=O)(OC)SCn1c(=O)oc2cc(Cl)cnc21 = inactive
CC(C)[C@H](C(=O)O[C@H](C#N)c1cccc(Oc2ccccc2)c1)c1ccc(Cl)cc1 = inactive
CCCCSP(=O)(SCCCC)SCCCC = inactive
CCOP(=S)(OCC)Oc1cc(C)nc(C(C)C)n1 = inactive
CN(C)NC(=O)CCC(=O)O = inactive

Shifting focus to the molecule that follows.
Record request: outcome value, item CCOP(=S)(Oc1cnc(C(C)(C)C)nc1)OC(C)C (stereo unspecified)
inactive

* * *

experiment: ATG_GLI_CIS: Attagene CIS-FACTORIAL HepG2 Assay for human Zinc Finger Protein GLI1 (AID 2282945); conditions: HepG2, Attagene cis-factorial reporter mRNA, GLI element; actives raise or lower the signal
Calls of active or inactive are those of the source. The calls were made as follows: active = hit-call score of the fitted dose curve at least 0.9, where 1 is the maximum; inactive = score below 0.9.
A correct response names exactly one class from True for active, False for inactive

Take a look at these entries with their results.
CCC(CC)Nc1c([N+](=O)[O-])cc(C)c(C)c1[N+](=O)[O-] = False
CCC(=O)Nc1ccc(Cl)c(Cl)c1 = False

Hi team, can someone confirm the assay call for CCOP(=S)(Oc1cnc(C(C)(C)C)nc1)OC(C)C (stereo not drawn) ?
True

Hi team, can someone confirm the assay call for CCCSP(=O)(OCC)Oc1ccc(Br)cc1Cl (stereo not drawn) ?
False

Hi team, can someone confirm the assay call for `Cc1cc(C2CC2)nc(Nc2ccccc2)n1` ?
False

Hi team, can someone confirm the assay call for `CSC1=N[C@@](C)(c2ccccc2)C(=O)N1Nc1ccccc1` ?
False

Hi team, can someone confirm the assay call for `Nc1nc(N)nc(NC2CC2)n1` ?
False

Hi team, can someone confirm the assay call for `O=[N+]([O-])c1cc(C(F)(F)F)c(Cl)c([N+](=O)[O-])c1Nc1ncc(C(F)(F)F)cc1Cl` ?
False
